// data source = paper PMC4788259

Test system: E. multilocularis metacestodes
METHOD_NOTES: PGI assay: phosphoglucose isomerase release from damaged metacestodes
Assay type: cell-based, Echinococcus multilocularis
CONDITION_CONTEXT: 10 μM, 5 days, single wells, relative to DB1127 (10 μM)
Method: The preparation of E. multilocularis metacestode material (strain H95) from intraperitoneally (i.p.) infected BALB/c mice was performed as described earlier. […] For screening of the Malaria Box against E. multilocularis metacestodes, the PGI screening assay was applied that measures the release of the enzyme phosphoglucose isomerase (PGI) upon physical impairment of metacestodes. […] Averages, standard deviations and EC50 values were calculated in Microsoft Excel 2010.
PROPERTY_LABEL: PGI (% of DB1127 at 10 uM) (%)
The figure you give is taken to be in %; do not add the unit.

COc1ccc(C(=O)Nc2ccc3nc(N4CCCCC4)cc(C)c3c2)cc1OC [MMV019758] = -36.67

The reported PGI (% of DB1127 at 10 uM) value, E. multilocularis metacestodes, for CCOC(=O)c1c(NC(=O)c2ccccc2)sc2c(O)c(CN(CC)CC)ccc12 [MMV665831] reads -16.80

The reported PGI (% of DB1127 at 10 uM) value, E. multilocularis metacestodes, for O=C(Nc1ccccc1O)c1ccc(-c2ccc(Cl)cc2Cl)o1 [MMV665948] reads -40.46

The reported PGI (% of DB1127 at 10 uM) value, E. multilocularis metacestodes, for O=C(O)C(=O)O.Oc1ccc(Br)cc1CN1CCN(Cc2cccc(F)c2)CC1 [MMV000356] reads -18.68

The reported PGI (% of DB1127 at 10 uM) value, E. multilocularis metacestodes, for O=C(O)C1Cc2c([nH]c3ccccc23)C(c2ccc(Cl)cc2Cl)N1 (stereo not shown) [MMV008138] reads -14.05
